Entries and their Kd
- test_system: RSV postfusion F (postF), F ΔFP (Respiratory Syncytial Virus, UniProt P03420 26-513)
- method_notes: BLI, IgG on anti-human IgG sensor, 100 nM antigen, 1:1 fit
State the answer as a number, implicitly in nM.

Reported Kd of ADI-41485 (antibody, V domains shown) VH: EVQLLESGPGLVRPSETLSLTCTVSGGSLDSGPHYWNWIRQPPGKGLEWIGYIYYSVSTNYNPSLKSRVTISMDTSKNQFSLNLTSVTAADTAVYYCASFQLIYGPQIWGQGKKVTVSS VL: DIVLTQSPSSVSASVGDRVTITCRASQAISSWLIWSQHKPGKAPKVLIYAASSLQSGVPSRFSGSGSGTDFTLTISSLQPEDFATYYCQQANNFPLTFGGGTKVEIK : 1.02

So, ADI-41534 (antibody, V domains shown, also called Ab 806; Antibody Number 806) VH: QVQLVQSGGGVVQPGRSLRLSCAASGFTFSNYAMHWVRQAPGKGLEWVTLISYDGSAQDYADSVKGRITISRDNSKNTLYLQMSSLRPEDTAVYYCARYYCTNDVCSSSALDIWGQGTTVTVSS VL: SYELIQPPSVSVSPGQTASITCSGDKLGNKFTCWYQQKPGQSPVLVIYQDSKRPSGIPERFSGSNSGNTATLTISGTQAMDEADYYCQAWDSSTVVFGGRTKLTVL ? Its Kd was 0.472

Form: binder = ADI-41525 (antibody, V domains shown, also called Ab 797; Antibody Number 797) VH: QVQLVQSGAEMKKPGSSVKVSCKASGRTFKYFALNWMRRAPGHGLEWIGGDIPISGSTNYAQKFQGRVTITADESASTAYMEVSRLRSDDTAVYYCASLHYDVSTGFSDAFDIWGQGTMVTVSS VL: QSVLTQPASVSGSPGQSITISCTGTSSDVGAYNYVSWYQHHPGKAPKLMIFDVSNRPSGVSNRFSGSKSGNTASLTISGLQAEDEADYYCSSYRSTFSYVFGTGTKVTVL ; Kd = 0.327

Others:
Input ADI-41504 (antibody, V domains shown, also called Ab 783; Antibody Number 783) VH: EVQLLESGPGLLKTSETLSLTCTVSDGSISGYYWTWIRQPPGKGLECIGYISYSGSTNYSPSLKSRVTISVDTSKNQFSLKLSSVTAADTAVYYCAKIGGYCNPTKCYGWFDPWGQGTLVTVSS VL: QPVLTQPPSVSGAPGQRVTISCTGSSSNIGAGYDVHWYQQLPGTAPKLLIFGNTNRPSGVPDRFSGSKSGTSASLAITGLQAEDEAAYYCQSYDSSLFYVVLGGGTKLTVL . Output Kd: 0.508

Query ADI-41471 (antibody, V domains shown) VH: QVQLVQSGADVKKPGSSVKISCKASGGSFITNSLSWVRRAPGQGLEWMGGIIPVSGTTTYAQKFLGRVTFTADESTSTAYMELNSLRSEDTAVYYCARFLGTPYPNVHYGMDVWGQGTTVTVSS VL: DIRVTQSPSSLSASVGARVTITCRASQSISTYLNWYQEKPGKAPKLLIYAASSLQRGVPSRFSGSGSETTFTLTISSLQPEDFATYYCQQSYTAAYNFGQGTKVEIK yields Kd of 0.761

// ADI-41473 (antibody, V domains shown) VH: QVQLVQSGPGLVKPSQTLSLTCAISGDSVSSNSAAWSWIRQSPSRGLEWLGRTYYRSKWYYDHAVSVEGRITINADTSKNHFSLQLNSVTPEDTAVYYCARDPDSGNYFHYYGMDVWGQGTTVTVSS VL: ETTLTQSPATLSLSPGERATLSCRTSQSVSSYLAWYQQKPGQAPRLLIYDASRRATGIPARFSGSGSGTHFTLTITSLEPEDFAVYYCQQRSKWPPYSFGQGTKVDIK : Kd value = 31.2
